# PROCEDURE DETAILS: blockers of DNA damage checkpoint Chk1 activation – imaging, HeLa, hydroxyurea, phospho-Chk1 nuclear intensity, primary screen (AID 1187); further: test concentration not given here
# RECORDED CONDITIONS: hydroxyurea-induced phospho-Chk1 immunofluorescence imaging, higher = more signal
Assign class by z-score: not lower than -0.1 means met; lower than -0.1 means not met.

Known results for molecules:
COC(=O)[C@@]1(Cc2ccccc2)[C@H]2c3cc(C(=O)N(C)C)n(Cc4ccc(C)o4)c3C[C@H]2CN1C(=O)c1ccccc1; met
CC(C)(C)OC(=O)CC[C@@]1(C(=O)NCC(O)CO)N=C(c2ccc(OCCCO)cc2)O[C@@H]1c1ccccc1CN=[N+]=[N-] (stereo not given in full); met
NCCCCCNC(=O)[C@@H]1C[C@@H]2C(=O)N[C@@H](CCCCN)C(=O)N2[C@@H]1c1ccc(O)cc1; not met
C=CC[C@@]1(C(=O)NCCCOC)N=C(c2ccc(OCCCO)cc2)O[C@@H]1c1ccccc1N=[N+]=[N-]; not met
CCCCCCCCCC(O)C1C=CC2C(=O)N(c3ccccc3)C(=O)C2N1Nc1cc(OC)c(OC)c(OC)c1 (stereo not given); met
CC(=O)NCCCC[C@@H]1NC(=O)[C@@H]2C[C@H](C(=O)NCCCCCN)[C@H](c3ccc(O)cc3)N2C1=O; met
CCCCC[C@H]1OC[C@@]23C=C(Br)[C@@H](CC12)[C@@]1(CO1)C3=O (stereo not given in full); not met
C=CCC(OC(C)=O)[C@@H]1[C@@H](N(Cc2ccc(-c3ccccc3)cc2)C(=O)c2ccc(-c3ccccc3)cc2)c2cc(OCCCO)ccc2N1C(=O)c1ccc2ccccc2c1 (stereo not given in full); not met
CCOC(=O)C[C@H]1[C@H](OC(=O)c2ccccc2-c2ccccc2)[C@@H](NC(=O)c2ccc3ccccc3n2)c2cc(OCCCO)ccc2N1C(=O)Cc1ccc(OC)cc1; not met
CCOC(=O)C1=C[C@@H](C(C)C)N(S(=O)(=O)c2ccc(C)cc2)[C@H]1c1ccc(C(F)(F)F)cc1; met

Ask: Reported z-score at or above -0.1? "Cc1ccc(S[C@]2(C(=O)NCCN3CCOCC3)CC(=O)N(Cc3ccccc3Cl)[C@@H]2c2ccc(CO)cc2I)cc1"
Reply: met

Ask: Given "C=CCN1C(=O)[C@]2(CCS(=O)(=O)c3ccccc3)N=C(c3ccc(OCCCO)cc3)O[C@@H]2c2ccccc21" , state whether its z-score is at least -0.1.
Reply: not met

Ask: Hi team, for "C=C(/C(=C/C[C@H](OC(=O)c1ccncc1)c1ccc(CO)o1)c1cnc2ccccc2c1)C(C)C" , is the recorded z-score at or above -0.1?
Reply: not met

Ask: API: above_or_equal(metric=z-score, cutoff=-0.1) for item CCOc1cc(C(O)C2C=CC3C(=O)NC(=O)C3N2Nc2ccc(Cl)cc2Cl)ccc1O (stereo not given)
Reply: met

Ask: Is reported z-score greater than or equal to -0.1 here: "CCCCCCc1nc(Cc2cc(OC)c(OC)c(OC)c2)cc2c1[Si](C(C)C)(C(C)C)OC2"
Reply: not met

* * *

# PROCEDURE DETAILS: viability profiling in RPMI8226 myeloma cells – cell-based, resazurin fluorescence, basal, 24 h, PK04 Diversity Set, profiling panel (AID 1180);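 further: RPMI8826 multiple myeloma cell line at 5000 cells per well; test concentration not given here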
# RECORDED CONDITIONS: higher = more signal
QUANTITY KIND: z-score
One number for each entry.

Cc1ccc(C(C)CC(O)C2C=CC3C(=O)N(c4ccccc4)C(=O)C3N2Nc2ccccc2)o1 (centres undefined); -0.738
COC(=O)C/C=C/C[C@]1(O)C(=O)N(C)c2ccccc21; 0.547
CCOC(=O)C[C@H]1[C@H](OC(=O)c2ccc(C(=O)c3ccccc3)cc2)[C@@H](NC(=O)C2CCCCC2)c2cc(OCCCO)ccc2N1C(=O)c1ccc2ccccc2n1; 0.0839

Ask: Quick check: z-score of "C=CCNC(=O)[C@@H]1[C@H]2C(=O)O[C@H](c3ccccc3)[C@H](c3ccccc3)N2[C@H](c2ccccc2OCCO)[C@@]12C(=O)Nc1ccc(C#CCC(C(=O)OC)C(=O)OC)cc12" ?
Reply: -7.28

* * *

Kindly supply the reported composite z-score values for the records listed here.
# System: Sam68 (KHDRBS1)
# PROCEDURE DETAILS: compounds binding KHDRBS1 protein – biochemical, small-molecule microarray, 635 nm fluorescence, primary screen (AID 1125);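 further: score merges 667 nm channel intensity with signal to noise over triplicate slides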
# RECORDED CONDITIONS: higher = more signal
Give bare numbers.

Some compounds with recorded composite z-score:
CC(C)C(O)C1C=CC2C(=O)N(c3ccccc3)C(=O)C2N1Nc1ccccc1 (stereo not given); 1.31
COc1cc2c(cc1O)C(c1cccs1)N(Cc1cc3c(cc1Br)OCO3)CC2 (stereo not given); 1.04
CC(C)C[C@@H]1NC(=O)[C@@H]2C[C@H](C(=O)NCCCCCCN)[C@H](c3cccc(OCCO)c3)N2C1=O; 1.31
[N-]=[N+]=Nc1ccccc1C[C@@]1(C(=O)NCCN2CCOCC2)N=C(c2ccc(OCCCO)cc2)O[C@@H]1c1ccccc1N=[N+]=[N-]; 1.3
COC(=O)[C@@H]1N=C(c2ccc(OCCCO)cc2)O[C@@H]1C; 0.973

Please go through the list and note composite z-score for each compound.
1. OCCCC1=CC(c2ccc(CN3CCCC3)cc2)N(Cc2cc3c(cc2Br)OCO3)CC1 (stereo not given)
2. CCOC(=O)C[C@H]1[C@H](OC(=O)c2ccccc2-c2ccccc2)[C@@H](NC(=O)c2ccc3ccccc3c2)c2cc(OCCCO)ccc2N1C(=O)c1ccccc1
3. COC(=O)[C@@H]1N=C(c2ccc(OCCCO)cc2)O[C@@H]1c1ccccc1
4. Cc1ccc(S[C@]2(C(=O)NCC(F)(F)F)CC(=O)N(Cc3cc(C(F)(F)F)cc(C(F)(F)F)c3)[C@@H]2c2ccc(CO)cc2I)cc1
5. C#CCN([C@@H](Cc1ccccc1)C(=O)OC)[C@@H](/C=C/C1CC1)[C@H](O)Cc1ccccc1
6. CN1C(=O)C2C=CC(C(O)c3cccn3C)N(Nc3ccc([N+](=O)[O-])cc3[N+](=O)[O-])C2C1=O (stereo not given)
7. O=C(O)[C@@H]1C[C@@H]2C(=O)N3CCC[C@H]3C(=O)N2[C@@H]1c1ccc(O)cc1

Reply:
-0.063
0.735
-0.826
-1.47
-0.326
-0.0879
0.721

Return reported composite z-score values for all items listed beneath this line.
1. C=CCN1C(=O)[C@]2(CCS(=O)(=O)c3ccccc3)N=C(c3ccc(OCCCO)cc3)O[C@@H]2c2ccccc21
2. COc1cc(C(O)C2C=CC3C(=O)N(C)C(=O)C3N2Nc2ccccc2)cc(OC)c1OC (stereo not given)

Reply:
1: 1.31; 2: 1.11

* * *

# Test system: glycogen synthase kinase-3 (GSK3A per assay name; protocol says GSK3B)
# PROCEDURE DETAILS: compounds binding glycogen synthase kinase-3 – biochemical, small-molecule microarray, 635 nm fluorescence, GSK3A, primary screen (AID 1103); further: the record names both GSK3A and GSK3B
# RECORDED CONDITIONS: fluorescence 635 nm, higher = more signal
QUANTITY KIND: composite z-score
Numbers only.

Give composite z-score for each of the items listed below.
1. CCOC(=O)C[C@H]1[C@H](OC(=O)c2cc3ccccc3oc2=O)[C@@H](NC(=O)c2ccccc2)c2cc(OCCCO)ccc2N1C(=O)c1ccccc1
2. C=CCC(OC(C)=O)[C@@H]1[C@@H](N(Cc2cccc3ccccc23)C(=O)Cc2ccc(F)cc2)c2cc(OCCCO)ccc2N1C(=O)c1ccc2ccccc2c1 (stereo partly drawn)
3. COc1ccc([Si](C)(C)[C@@H]2[C@@H](CCO)O[C@]3(C(=O)N(Cc4cccc(NC(=O)[C@H](C)O)c4)c4ccccc43)[C@H]2C)cc1
4. O=C(NCc1ccc(F)cc1)[C@H]1C[C@H]2C(=O)NCC(=O)N2[C@H]1c1ccc(O)cc1

Reply:
1. 0.775
2. 0.0566
3. 1.27
4. -0.88

Hi team, please reply with composite z-score for each item in this list.
1. C#CCN(Cc1ccccc1Br)[C@H](/C=C/c1ccccc1)[C@@H](O)Cc1ccccc1
2. C[N+](C)(C)CCCCCCNC(=O)[C@@H]1C[C@@H]2C(=O)N3CCC[C@H]3C(=O)N2[C@@H]1c1ccc(O)cc1
3. CC(CO)N1C(=O)[C@@H]2[C@H]3C(=O)OCC=C[C@H]3OC23C=CCN(Cn2nnc4ccccc42)C(=O)[C@@H]13 (stereo partly drawn)
4. COCCOC(=O)N1C(=O)[C@@]2(c3cc(C#CC4=CCCCC4)ccc31)[C@H](c1ccccc1OCCO)N1[C@H](c3ccccc3)[C@H](c3ccccc3)OC(=O)[C@H]1[C@@H]2C(=O)N1CCN(c2ncccn2)CC1

Reply:
1. -0.705
2. 1.2
3. -0.778
4. 1.28

* * *

# TESTED SYSTEM: Fibroblast growth factor 2 (Homo sapiens) (UniProt P09038)
# Sequence (P09038 whole entry, looked up): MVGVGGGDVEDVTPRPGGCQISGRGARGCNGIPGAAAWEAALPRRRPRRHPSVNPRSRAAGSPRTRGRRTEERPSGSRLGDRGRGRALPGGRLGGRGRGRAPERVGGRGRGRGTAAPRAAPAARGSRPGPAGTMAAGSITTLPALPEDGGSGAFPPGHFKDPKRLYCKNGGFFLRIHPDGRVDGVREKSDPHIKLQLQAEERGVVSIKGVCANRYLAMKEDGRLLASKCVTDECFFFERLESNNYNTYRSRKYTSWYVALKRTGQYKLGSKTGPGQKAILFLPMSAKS
# PROCEDURE DETAILS: basic fibroblast growth factor binding to printed compounds – biochemical, small-molecule microarray, 635/667 nm fluorescence, primary screen (AID 1133)
# RECORDED CONDITIONS: FGF2, fluorescence 635/667, higher = more signal
Parameter threshold = 0.04. Response is y when composite z-score meets or exceeds it, else n.

Known results for molecules:
CC#CCO[Si](C#Cc1ccccc1)(C(C)C)C(C)C; n
COc1ccc([C@H]2OC[C@@H]3C[C@H](Cc4ccccc4)C(=O)N32)cc1; y
COC(=O)[C@@]1(Cc2ccccc2)[C@H]2c3cc(C(=O)N4CCCC4)n(CCc4ccccn4)c3C[C@H]2CN1C(=O)c1ccccc1; n
CC[C@@H]1O[Si](C(C)C)(C(C)C)c2c1cc(-c1cc(C)c(OC)c(C)c1)nc2-c1ccc(Oc2ccccc2)cc1; n

Ask: Kindly determine if composite z-score recorded for "CO[C@H]1O[C@H](CO)[C@@H](OC(=O)Nc2ccccc2)[C@H](OC(=O)c2cc3ccccc3[nH]2)[C@H]1OC(=O)c1cc2ccccc2[nH]1" is above or exactly 0.04.
Reply: y

Ask: Quick check: does CS(=O)(=O)CCOC(=O)C1=CC(c2ccc(CO)cc2)=CC(C2CC2)N(Cc2sc3ccccc3c2Cl)C=C1C(=O)OCCS(C)(=O)=O (stereo not given) have composite z-score greater than or equal to 0.04?
Reply: y

Ask: Determine whether this molecule has composite z-score no lower than 0.04: "C=CC[C@@]1(C(=O)NCCCOC)N=C(c2ccc(OCCCO)cc2)O[C@@H]1c1ccccc1"
Reply: y

Ask: Answer whether composite z-score of "[N-]=[N+]=Nc1ccccc1C[C@]1(C(=O)NCCN2CCOCC2)COC(c2ccc(OCCCO)cc2)=N1" is greater than or equal to 0.04.
Reply: y

Ask: Does "COC(=O)[C@@]1(Cc2ccc(F)cc2)[C@H]2c3cc(C(=O)N4CCCC4)n(CCc4c[nH]c5ccccc45)c3C[C@H]2CN1C(=O)c1ccccc1" have a reported composite z-score of at least 0.04?
Reply: y

Ask: I'd appreciate it if you could say whether "CCCNC(=O)[C@@]1(C)c2ccccc2C(=O)N(c2ccc(C)cn2)[C@H]1c1ccc(CO)cc1" has composite z-score at least equal to 0.04.
Reply: n

Ask: # bool: composite z-score of CCCCN1CC=CC23O[C@@H]4/C=C\CCC(C)OC(=O)C4[C@H]2C(=O)N(CCCO)[C@@H]3C1=O (stereo not given in full) >= 0.04
Reply: n

Ask: Is composite z-score at least 0.04? Consider "COC(=O)[C@@]1(Cc2ccc(F)cc2)[C@H]2c3cc(C(=O)N4CCCC4)n(Cc4ccc(C)c(F)c4F)c3C[C@H]2CN1C(=O)c1ccccc1"
Reply: n

Ask: In plain terms: is recorded composite z-score at least 0.04 for "CCCC=C(CCC)[C@@H](NC(=O)c1cccs1)c1ccc(C(=O)OC)cc1" ?
Reply: y

Ask: Please check the record "O[C@@H](Cc1ccccc1)[C@@H](/C=C/C1CC1)N(CC#Cc1ccccc1)Cc1ccccc1Br" and state if its composite z-score is at or above 0.04.
Reply: n

Ask: Is reported composite z-score greater than or equal to 0.04 here: "COCCOC(=O)N1C(=O)[C@@]2(c3cc(C#CC4(O)CCCCCC4)ccc31)[C@H](C(=O)Nc1nc3ccccc3s1)[C@H]1C(=O)O[C@H](c3ccccc3)[C@H](c3ccccc3)N1[C@@H]2c1ccc(O)cc1"
Reply: y

FYI, the data here is from PubChem BioAssay.
